Kochia plant response rating: recorded values
test system: kochia; assay: Test E preemergence; assay type: in vivo, Kochia scoparia; settings: 31 g ai/ha, scale 0 to 100 (0 no effect, 100 complete control)
Lab note: write the figure by itself, no unit.

In the examples that follow, each entry is paired with its recorded Kochia plant response rating.
>  <COMPOUND>
N#Cc1cccc(Oc2ncc(F)cn2)c1-n1cc(I)cn1

>  <Kochia plant response rating>
90

$$$$
>  <COMPOUND>
FC(F)(F)c1cnn(-c2ccccc2Oc2ncc(Cl)cn2)c1

>  <Kochia plant response rating>
0

$$$$

GET /values?readout=Kochia plant response rating&system=kochia&item= FC(F)c1cccc(Oc2ncc(Cl)cn2)c1-n1cc(Br)cn1
5

Provide the documented Kochia plant response rating with kochia as the system for N#Cc1cnn(-c2c(C#N)cccc2Oc2ncc(F)cn2)c1
10

----------
system: barnyardgrass; assay: Test C preemergence; type: in vivo, Echinochloa crus-galli; conditions: Preemergence, 31 g ai/ha; scale 0 to 100, 0 no effect, 100 complete control
Source text: […]
Listed below: Plant response rating, Barnyardgrass values for each entry.
Lab note: jot the number down without any unit.

Examples with answers:
>  <COMPOUND>
FCc1cn(-c2c(F)cccc2Oc2ncc(Cl)cn2)nn1

>  <QUANTITATIVE RESULT>
25

$$$$
>  <COMPOUND>
CCOc1cn(-c2c(Br)cccc2Oc2ncc(Cl)cn2)nn1

>  <QUANTITATIVE RESULT>
25

$$$$
>  <COMPOUND>
Fc1cnc(Oc2cccc(C(F)F)c2-n2cc(Br)cn2)nc1

>  <QUANTITATIVE RESULT>
5

$$$$

Given the entry FC(F)(F)c1cnn(-c2c(Cl)cccc2Oc2ncc(Cl)cn2)c1 , report its measured Plant response rating, Barnyardgrass.
85

State the recorded Plant response rating, Barnyardgrass for this entry: FCc1cccc(Oc2ncc(F)cn2)c1-n1cc(C(F)(F)F)cn1
80

----------
system: winter wheat; experiment: Test D preemergence; assay type: in vivo, Triticum aestivum; settings: Triticum aestivum, pre-emergence, 125 g ai/ha, scale 0-100, read-out: Plant response rating, Wheat, Winter
The following compounds are shown together with reported plant injury at 125 g/ha values.
Give the quantity in %, number only.

Bench note: what plant injury at 125 g/ha did FC(F)(F)c1cn(-c2ccccc2Oc2ncc(Cl)cn2)nn1 [Compound 166] show?
25

plant injury at 125 g/ha lookup needed for FC(F)(F)c1cnn(-c2ccccc2Oc2ncc(Br)cn2)c1 [Compound 18] , thanks.
5

Recorded plant injury at 125 g/ha of FC(F)(F)COc1cnn(-c2ccccc2Oc2ncc(Cl)cn2)c1 [Compound 138] , please.
5

I'd like to know its plant injury at 125 g/ha. The compound in question is Clc1cnc(Oc2ccccc2-n2cc(Br)cn2)nc1 [Compound 7]
5

----------
test system: giant foxtail; assay: Test C postemergence; format: in vivo, Setaria faberii; conditions: Setaria faberi, post-emergence; Postemergence, 62 g ai/ha; scale 0 to 100 (0 no effect, 100 complete control); read-out: Plant response rating, Foxtail, Giant
OBSERVABLE: pest or weed control at 62 g/ha
Write your answer as a measured quantity: the number, then the unit.

>  <COMPOUND>
FC(F)(F)Sc1cnn(-c2ccccc2Oc2ncc(Cl)cn2)c1

>  <TARGET>
giant foxtail

>  <RESULT>
5%

$$$$
>  <COMPOUND>
N#Cc1cccc(Oc2ncc(Br)cn2)c1-n1cc(C(F)(F)F)cn1

>  <TARGET>
giant foxtail

>  <RESULT>
45%

$$$$
>  <COMPOUND>
Clc1cnc(Oc2ccccc2-n2cc(Br)cn2)nc1

>  <TARGET>
giant foxtail

>  <RESULT>
5%

$$$$

For Fc1cccc(Oc2ncc(Cl)cn2)c1-n1cc(Br)cn1 , what is its reported pest or weed control at 62 g/ha?
5%
